- METHOD_SUMMARY: pH of the reaction solution before and after IL catalyzed depolymerization
- Format: physicochemical
- EXPERIMENTAL_CONTEXT: after depolymerization reaction of PLA
PROPERTY_LABEL: pH after reaction, PLA

| COMPOUND | PROPERTY_LABEL | ASSAY_VALUE |
| --- | --- | --- |
| CC(=O)[O-].CCn1cc[n+](C)c1 [[Emim][Ac], 1-ethyl-3-methylimidazolium acetate] | pH after reaction, PLA | 7.2 |
| O | pH after reaction, PLA | 3.4 |
| C[N+](C)(C)CCO.NCCCC[C@H](N)C(=O)[O-] [[Ch][Lys], cholinium lysinate] | pH after reaction, PLA | 11.1 |
| C[N+](C)(C)CCO.C[N+](C)(C)CCO.C[N+](C)(C)CCO.O=P([O-])([O-])[O-] [[Ch]3[Phos], cholinium phosphate] | pH after reaction, PLA | 8.1 |
| CCn1cc[n+](C)c1.[Cl-] [[Emim]Cl, 1-ethyl-3-methylimidazolium chloride] | pH after reaction, PLA | 3.2 |

###

- METHOD_SUMMARY: pH of the reaction solution before and after IL catalyzed depolymerization
- Format: physicochemical
- EXPERIMENTAL_CONTEXT: IL systems 10 wt % in water; alkaline water adjusted with NaOH
- Method: Hydrolytic depolymerization of PET and PLA involves chain scission of ester linkages, where a carboxyl end group is released. […] We hypothesized that the pH influenced by IL was the major driving force of PET and PLA depolymerization. To test the hypothesis, a set of control experiments were conducted using only water and alkaline water as the solvent. […] (with pH 11.8).
PROPERTY_LABEL: pH before reaction

| COMPOUND | PROPERTY_LABEL | ASSAY_VALUE |
| --- | --- | --- |
| CCn1cc[n+](C)c1.[Cl-] [[Emim]Cl, 1-ethyl-3-methylimidazolium chloride] | pH before reaction | 6.4 |
| C[N+](C)(C)CCO.NCCCC[C@H](N)C(=O)[O-] [[Ch][Lys], cholinium lysinate] | pH before reaction | 11.8 |
| C[N+](C)(C)CCO.C[N+](C)(C)CCO.C[N+](C)(C)CCO.O=P([O-])([O-])[O-] [[Ch]3[Phos], cholinium phosphate] | pH before reaction | 12.7 |
| CC(=O)[O-].CCn1cc[n+](C)c1 [[Emim][Ac], 1-ethyl-3-methylimidazolium acetate] | pH before reaction | 7.1 |
| O | pH before reaction | 7.6 |

###

- METHOD_SUMMARY: pH of the reaction solution before and after IL catalyzed depolymerization
- Assay type: physicochemical
- EXPERIMENTAL_CONTEXT: after depolymerization reaction of PET
Returns Yes if the recorded pH after reaction, PET is greater than or equal to 7, and No otherwise.

| COMPOUND | CLASS |
| --- | --- |
| C[N+](C)(C)CCO.C[N+](C)(C)CCO.C[N+](C)(C)CCO.O=P([O-])([O-])[O-] [[Ch]3[Phos], cholinium phosphate] | Yes |
| CCn1cc[n+](C)c1.[Cl-] [[Emim]Cl, 1-ethyl-3-methylimidazolium chloride] | No |
| O | No |
| C[N+](C)(C)CCO.NCCCC[C@H](N)C(=O)[O-] [[Ch][Lys], cholinium lysinate] | Yes |
